# ASSAYED_SYSTEM: human trace amine-associated receptor 1 (TAAR1) (Homo sapiens)
# Construct: expressed in transfected cells
# PROTOCOL_SUMMARY: TAAR1 activation, intracellular cAMP (ELISA) in HEK293T cells stably expressing human TAAR1
# Format: cell-based
# CONDITION_LABEL: HEK-293T, % of maximal cAMP level obtained by phenethylamine; average (95% CI)
Task for the reader: assign each of the following molecules its reported Emax.
Answers are plain numbers, in %.

Recorded results for 4 molecules are shown here.
MOLECULE | Emax [%]
CN(C)CCc1ccccc1 | 64
CNCC(O)c1ccccc1 (centres unmarked) | 104
CC(CN)c1ccccc1 (centres unmarked) | 77
NCC(O)c1ccc(O)cc1 (centres unmarked) | 85

Turning now to a further record.
Record summary for CNCC(O)c1ccc(O)cc1 (centres unmarked) [p-Synephrine, p-synephrine] : reported Emax = 85

* * *

# ASSAYED_SYSTEM: human adrenergic receptor (ADR) α1D (Homo sapiens)
# Construct: host or cells: rat chem-1 cells
# Sequence (P25100 whole entry): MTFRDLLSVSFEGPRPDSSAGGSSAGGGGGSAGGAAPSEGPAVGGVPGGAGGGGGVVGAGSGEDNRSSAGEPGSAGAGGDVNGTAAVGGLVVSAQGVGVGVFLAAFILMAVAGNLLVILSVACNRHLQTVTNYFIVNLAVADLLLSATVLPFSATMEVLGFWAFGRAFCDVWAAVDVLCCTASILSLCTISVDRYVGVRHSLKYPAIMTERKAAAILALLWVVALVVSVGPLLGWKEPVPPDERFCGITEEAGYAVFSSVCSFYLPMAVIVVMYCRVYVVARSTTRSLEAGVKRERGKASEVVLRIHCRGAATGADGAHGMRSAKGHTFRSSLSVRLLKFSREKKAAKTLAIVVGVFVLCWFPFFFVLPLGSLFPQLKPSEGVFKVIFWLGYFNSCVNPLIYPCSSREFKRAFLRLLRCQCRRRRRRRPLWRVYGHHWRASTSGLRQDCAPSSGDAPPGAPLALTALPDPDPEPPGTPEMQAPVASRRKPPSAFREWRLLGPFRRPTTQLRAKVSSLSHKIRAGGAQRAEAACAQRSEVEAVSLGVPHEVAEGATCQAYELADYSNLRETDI
# PROTOCOL_SUMMARY: ADRα1D activation, Ca2+ influx (Fluo-8) in overexpressing chem-1 cells
# Assay type: cell-based
# CONDITION_LABEL: Ca2+ response, chem-1 cells; average (95% confidence interval), 7–9 experiments
pEC50: −log10 of the molar value.
For each of the molecules below, state its pEC50.

MOLECULE | MEASURE_NAME | MEASUREMENT
NCCc1ccc(O)cc1 [Tyramine, tyramine] | pEC50 | < 3.52

// each molecule listed below needs its pEC50
1. CC(C)CCCC(C)N (centres unmarked)
2. CNCC(O)c1ccccc1 (centres unmarked) [Halostachine, halostachine]
3. NCCc1ccccc1 [Phenethylamine, phenethylamine]
4. CN(C)CCO [Dimethylaminoethanol, dimethylaminoethanol]
5. CN(C)CCc1ccc(O)cc1 [Hordenine, hordenine]

RESULT:
< 3.52
5.68
< 3.52
< 3.52
4.47

Give measured pEC50 for every item shown.
1. NCC(O)c1ccc(O)cc1 (centres unmarked) [p-Octopamine, p-octopamine]
2. CNC[C@H](O)c1ccc(O)c(O)c1 [Adrenaline, adrenaline, reference compound]
3. CC(C)CC(C)N (centres unmarked)
4. CCC(C)CC(C)N (centres unmarked) [1,3-Dimethylamylamine, 1,3-dimethylamylamine]

RESULT:
1: 5.92; 2: 8.77; 3: < 3.52; 4: < 3.52

So, CNC(C)C(O)c1ccc(O)cc1 (centres unmarked) [Methylsynephrine] ? Its pEC50 was < 3.52

* * *

I'd appreciate it if you could supply Emax values for the items below.
# ASSAYED_SYSTEM: human adrenergic receptor (ADR) α1D (Homo sapiens)
# Construct: host or cells: rat chem-1 cells
# PROTOCOL_SUMMARY: ADRα1D activation, Ca2+ influx (Fluo-8) in overexpressing chem-1 cells
# Format: cell-based
# CONDITION_LABEL: Chem-1
Give bare numbers, in %.

Please review the entries below; each comes with its answer.
COMPOUND | Emax, %
CN(C)CCc1ccc(O)cc1 [Hordenine, hordenine] | 23
CNC[C@H](O)c1ccc(O)c(O)c1 [Adrenaline, adrenaline, reference compound] | 99
CN(C)CCc1ccccc1 [Dimethylphenethylamine, N,N-dimethylphenethylamine] | 7.9

Batch request: Emax per item, same order as input.
1. NCC(O)c1ccc(O)cc1 (stereo not drawn) [p-Octopamine, p-octopamine]
2. CNCC(O)c1ccccc1 (stereo not drawn) [Halostachine, halostachine]

RESULT:
1. 100
2. 82

Considering CNCC(O)c1ccc(O)cc1 (stereo not drawn) [p-Synephrine, p-synephrine] , its Emax with human adrenergic receptor (ADR) α1D (Homo sapiens) was recorded as 80

* * *

# ASSAYED_SYSTEM: UniProt:P35348
# Sequence (P35348 whole entry): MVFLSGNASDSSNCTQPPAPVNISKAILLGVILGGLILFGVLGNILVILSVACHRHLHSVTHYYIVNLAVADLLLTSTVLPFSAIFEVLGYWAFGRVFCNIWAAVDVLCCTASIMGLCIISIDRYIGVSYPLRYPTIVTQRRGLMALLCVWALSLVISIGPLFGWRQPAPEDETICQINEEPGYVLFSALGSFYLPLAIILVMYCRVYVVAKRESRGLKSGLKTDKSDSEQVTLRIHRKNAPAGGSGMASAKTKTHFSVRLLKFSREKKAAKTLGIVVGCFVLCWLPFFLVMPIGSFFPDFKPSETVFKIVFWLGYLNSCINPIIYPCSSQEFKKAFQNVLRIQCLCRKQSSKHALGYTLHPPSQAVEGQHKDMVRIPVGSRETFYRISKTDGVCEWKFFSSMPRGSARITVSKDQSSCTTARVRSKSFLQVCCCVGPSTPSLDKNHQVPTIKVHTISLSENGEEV
# PROTOCOL_SUMMARY: ADRα1A activation, Ca2+ influx (Fluo-8) in overexpressing chem-1 cells
# CONDITION_LABEL: Ca2+ response, chem-1 cells; average (95% confidence interval), 7–9 experiments
What pEC50 was measured for each of the following?
Answers are plain numbers, as −log10 of the molar value.

COMPOUND | MEASURE_NAME | MEASUREMENT
NCC(O)c1ccc(O)cc1 (stereo not shown) [p-Octopamine, p-octopamine] | pEC50 | 4.96
CNCC(O)c1ccc(O)cc1 (stereo not shown) [p-Synephrine, p-synephrine] | pEC50 | 5.62
CNCC(O)c1ccccc1 (stereo not shown) [Halostachine, halostachine] | pEC50 | 5.06

Next compound, pEC50 to be filled in.
Summary for this compound, CNC(C)C(O)c1ccc(O)cc1 (stereo not shown) [Methylsynephrine] : pEC50 is 4.36

* * *

# ASSAYED_SYSTEM: human trace amine-associated receptor 1 (TAAR1) (Homo sapiens, UniProt Q96RJ0)
# Sequence (Q96RJ0 1-339): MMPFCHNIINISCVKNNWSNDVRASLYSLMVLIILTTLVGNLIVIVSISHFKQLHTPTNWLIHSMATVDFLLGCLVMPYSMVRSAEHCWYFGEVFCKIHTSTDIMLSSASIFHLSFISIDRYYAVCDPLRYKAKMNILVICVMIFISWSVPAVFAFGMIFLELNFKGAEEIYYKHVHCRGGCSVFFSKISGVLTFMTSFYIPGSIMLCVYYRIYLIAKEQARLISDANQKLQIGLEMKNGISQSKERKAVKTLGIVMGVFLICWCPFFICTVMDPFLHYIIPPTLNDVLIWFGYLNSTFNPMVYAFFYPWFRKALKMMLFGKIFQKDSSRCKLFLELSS
# PROTOCOL_SUMMARY: TAAR1 activation, intracellular cAMP (ELISA) in HEK293T cells stably expressing human TAAR1
# CONDITION_LABEL: cAMP, HEK293T-hTAAR1 cells, 1 h exposure; average (95% confidence interval), 3–5 experiments
Provide the recorded pEC50 for the entries that follow.
Answers are plain numbers, as −log10 of the molar value.

Sample records with pEC50:
COMPOUND | ASSAYED_SYSTEM | pEC50
NCCc1ccccc1 [Phenethylamine, phenethylamine] | human trace amine-associated receptor 1 (TAAR1) (Homo sapiens, UniProt Q96RJ0) | 5.06
CC(C)NCC(O)c1ccc(O)cc1 (stereo not drawn) [Isopropyloctopamine, isopropyloctopamine] | human trace amine-associated receptor 1 (TAAR1) (Homo sapiens, UniProt Q96RJ0) | 5.74
CC(CN)c1ccccc1 (stereo not drawn) [β-Methylphenethyl-amine, beta-methylphenethylamine] | human trace amine-associated receptor 1 (TAAR1) (Homo sapiens, UniProt Q96RJ0) | 5.68
CNCC(O)c1ccccc1 (stereo not drawn) [Halostachine, halostachine] | human trace amine-associated receptor 1 (TAAR1) (Homo sapiens, UniProt Q96RJ0) | 4.13
Oc1ccc(CC2NCCc3cc(O)c(O)cc32)cc1 (stereo not drawn) [Higenamine, higenamine] | human trace amine-associated receptor 1 (TAAR1) (Homo sapiens, UniProt Q96RJ0) | 6.01
CN(C)CCc1ccccc1 [Dimethylphenethylamine, N,N-dimethylphenethylamine] | human trace amine-associated receptor 1 (TAAR1) (Homo sapiens, UniProt Q96RJ0) | 4.68
CN(C)CCc1ccc(O)cc1 [Hordenine, hordenine] | human trace amine-associated receptor 1 (TAAR1) (Homo sapiens, UniProt Q96RJ0) | 4.33
NCC(O)c1ccc(O)cc1 (stereo not drawn) [p-Octopamine, p-octopamine] | human trace amine-associated receptor 1 (TAAR1) (Homo sapiens, UniProt Q96RJ0) | 4.34
CNCC(O)c1ccc(O)cc1 (stereo not drawn) [p-Synephrine, p-synephrine] | human trace amine-associated receptor 1 (TAAR1) (Homo sapiens, UniProt Q96RJ0) | 4.04

Field pEC50 (entry NCCc1ccc(O)cc1 [Tyramine, tyramine] ) reads 5.02

* * *

# ASSAYED_SYSTEM: human adrenergic receptor (ADR) α1B (Homo sapiens, UniProt P35368)
# Construct: host or cells: rat chem-1 cells
# Sequence (P35368 whole entry): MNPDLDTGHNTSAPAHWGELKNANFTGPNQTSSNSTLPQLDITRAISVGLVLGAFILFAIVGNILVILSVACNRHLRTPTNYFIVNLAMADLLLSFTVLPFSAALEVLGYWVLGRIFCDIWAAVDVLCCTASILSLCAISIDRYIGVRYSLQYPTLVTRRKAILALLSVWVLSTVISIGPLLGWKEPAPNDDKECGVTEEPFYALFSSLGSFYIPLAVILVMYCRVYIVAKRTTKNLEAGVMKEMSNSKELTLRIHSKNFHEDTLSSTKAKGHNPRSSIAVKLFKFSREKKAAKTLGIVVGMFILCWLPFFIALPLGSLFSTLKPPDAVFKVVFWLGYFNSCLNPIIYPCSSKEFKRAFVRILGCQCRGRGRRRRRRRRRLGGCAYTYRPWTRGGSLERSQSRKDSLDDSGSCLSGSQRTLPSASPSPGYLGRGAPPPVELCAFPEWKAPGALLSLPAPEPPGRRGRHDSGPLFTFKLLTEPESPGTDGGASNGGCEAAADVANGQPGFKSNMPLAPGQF
# PROTOCOL_SUMMARY: ADRα1B activation, Ca2+ influx (Fluo-8) in overexpressing chem-1 cells
# Format: cell-based
# CONDITION_LABEL: Chem-1, read-out: ADRα1B Emax
# cutoff 90% applies to Emax; >= gives satisfied, < gives not satisfied

QUERY: Determine whether this compound has Emax no lower than 90%: CNC[C@H](O)c1ccc(O)c(O)c1 [Adrenaline, adrenaline, reference compound]
RESULT: satisfied

* * *

# ASSAYED_SYSTEM: human adrenergic receptor (ADR) α1B (Homo sapiens, UniProt P35368)
# Construct: host or cells: rat chem-1 cells
# PROTOCOL_SUMMARY: ADRα1B activation, Ca2+ influx (Fluo-8) in overexpressing chem-1 cells
# Type: cell-based
pEC50: −log10 of the molar value.
So I've got a bunch of compounds here, and I need their pEC50 values.

Look over these answered cases.
COMPOUND | MEASUREMENT
CC(C)NCC(O)c1ccc(O)cc1 (centres unmarked) | < 3.52
CNC(C)C(O)c1ccc(O)cc1 (centres unmarked) [Methylsynephrine] | < 3.52
Oc1ccc(CC2NCCc3cc(O)c(O)cc32)cc1 (centres unmarked) | < 3.52
CNCC(O)c1ccccc1 (centres unmarked) | 5.96
NCCc1ccc(O)cc1 | < 3.52
CN(C)CCc1ccc(O)cc1 | 5.24

# per-item lookup of pEC50; items listed below
1. CN(C)CCO
2. CC(C)CC(C)N (centres unmarked)
3. CN(C)CCc1ccccc1
4. NCC(O)c1ccc(O)cc1 (centres unmarked)
5. NCCc1ccccc1
6. CCC(C)CC(C)N (centres unmarked)

RESULT:
< 3.52
< 3.52
5.21
5.41
< 3.52
< 3.52

Would you mind giving pEC50 for every compound in the list below?
1. CC(C)CCCC(C)N (centres unmarked)
2. CC(CN)c1ccccc1 (centres unmarked)

RESULT:
1. < 3.52
2. < 3.52

These data points were gathered from paper PMC11174489.
